- Measured On: Toll-like receptor 2 (Homo sapiens, UniProt O60603)
- Sequence (O60603 whole entry): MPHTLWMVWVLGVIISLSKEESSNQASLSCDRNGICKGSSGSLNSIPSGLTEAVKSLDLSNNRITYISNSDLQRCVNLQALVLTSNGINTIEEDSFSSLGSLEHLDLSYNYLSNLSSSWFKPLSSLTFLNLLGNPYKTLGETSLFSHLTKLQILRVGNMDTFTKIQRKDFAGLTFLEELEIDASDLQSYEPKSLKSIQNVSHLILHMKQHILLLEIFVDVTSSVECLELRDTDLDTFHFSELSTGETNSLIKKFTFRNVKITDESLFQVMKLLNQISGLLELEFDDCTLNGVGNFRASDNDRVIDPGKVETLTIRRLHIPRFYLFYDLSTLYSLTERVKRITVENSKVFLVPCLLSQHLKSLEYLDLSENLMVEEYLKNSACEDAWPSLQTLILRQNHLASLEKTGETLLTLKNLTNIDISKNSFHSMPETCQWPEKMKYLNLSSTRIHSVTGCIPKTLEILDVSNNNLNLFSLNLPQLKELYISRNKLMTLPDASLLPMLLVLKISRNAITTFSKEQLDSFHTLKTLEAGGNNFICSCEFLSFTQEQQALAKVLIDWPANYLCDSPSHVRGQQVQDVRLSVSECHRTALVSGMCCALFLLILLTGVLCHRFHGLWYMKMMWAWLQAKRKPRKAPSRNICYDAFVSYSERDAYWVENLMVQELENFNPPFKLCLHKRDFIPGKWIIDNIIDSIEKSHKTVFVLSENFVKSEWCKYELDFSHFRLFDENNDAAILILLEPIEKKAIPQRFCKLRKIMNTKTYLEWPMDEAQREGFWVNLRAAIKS
pIC50: −log10 of the molar value.

Chem Smiles	pIC50
O=Cc1cc(NC(=O)c2csc(N3CCCCC3)n2)cc(F)c1O	5.28
